Reference source for all entries: patent US20040197865A1

# maps each entry to its Fold Increase in Luciferase Induction
- target: human TLR6 (Homo sapiens, UniProt Q9Y2C9)
- Construct: expressed in transfected cells; host or cells: Namalwa cells (ATCC CRL-1432), co-transfected with pIFN-α1-luc and pCI-TLR6, G418-selected
- Sequence (Q9Y2C9 32-796): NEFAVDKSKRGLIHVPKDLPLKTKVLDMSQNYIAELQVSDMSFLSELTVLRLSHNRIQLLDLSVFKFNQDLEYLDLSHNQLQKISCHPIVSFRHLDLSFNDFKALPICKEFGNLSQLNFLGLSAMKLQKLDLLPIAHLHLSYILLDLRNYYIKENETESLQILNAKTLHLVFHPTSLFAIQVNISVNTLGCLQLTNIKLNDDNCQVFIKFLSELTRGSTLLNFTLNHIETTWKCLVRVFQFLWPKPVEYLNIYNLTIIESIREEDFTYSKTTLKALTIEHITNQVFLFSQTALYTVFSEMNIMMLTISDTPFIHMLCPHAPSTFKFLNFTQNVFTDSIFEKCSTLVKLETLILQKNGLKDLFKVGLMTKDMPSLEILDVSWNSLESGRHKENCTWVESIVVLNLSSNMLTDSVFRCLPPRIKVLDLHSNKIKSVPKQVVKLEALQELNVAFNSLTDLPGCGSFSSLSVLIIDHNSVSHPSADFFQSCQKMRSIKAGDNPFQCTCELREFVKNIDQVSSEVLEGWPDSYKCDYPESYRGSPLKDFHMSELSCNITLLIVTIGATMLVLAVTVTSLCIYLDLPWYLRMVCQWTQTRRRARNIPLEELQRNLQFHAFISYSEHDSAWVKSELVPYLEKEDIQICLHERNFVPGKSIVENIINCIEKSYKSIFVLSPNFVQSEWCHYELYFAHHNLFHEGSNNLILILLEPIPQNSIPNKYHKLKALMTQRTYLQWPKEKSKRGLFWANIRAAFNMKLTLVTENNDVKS
- Sequence (O60603 19-784 partner limits assumed): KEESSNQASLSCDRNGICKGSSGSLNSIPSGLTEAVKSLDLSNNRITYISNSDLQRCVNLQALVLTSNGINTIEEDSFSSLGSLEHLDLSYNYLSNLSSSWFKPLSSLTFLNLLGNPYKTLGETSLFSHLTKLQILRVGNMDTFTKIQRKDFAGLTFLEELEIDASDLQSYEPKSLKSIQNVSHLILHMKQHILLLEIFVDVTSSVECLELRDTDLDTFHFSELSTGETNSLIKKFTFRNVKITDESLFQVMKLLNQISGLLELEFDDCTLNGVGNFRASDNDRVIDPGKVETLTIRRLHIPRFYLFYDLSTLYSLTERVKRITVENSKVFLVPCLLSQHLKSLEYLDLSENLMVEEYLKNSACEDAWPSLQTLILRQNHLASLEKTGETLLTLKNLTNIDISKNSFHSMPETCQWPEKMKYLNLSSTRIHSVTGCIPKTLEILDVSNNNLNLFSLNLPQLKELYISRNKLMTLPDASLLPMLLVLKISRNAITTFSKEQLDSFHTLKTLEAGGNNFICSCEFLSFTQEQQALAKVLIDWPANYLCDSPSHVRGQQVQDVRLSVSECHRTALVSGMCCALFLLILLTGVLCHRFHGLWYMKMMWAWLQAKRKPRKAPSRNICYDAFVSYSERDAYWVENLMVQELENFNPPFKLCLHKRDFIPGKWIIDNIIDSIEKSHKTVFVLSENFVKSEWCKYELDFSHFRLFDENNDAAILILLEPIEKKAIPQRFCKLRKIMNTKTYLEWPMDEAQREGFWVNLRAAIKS
- measurement description: Luciferase induction off the IFN-α1 promoter in pIFN-α1-luc/pCI-TLR6 co-transfected Namalwa cells
- Type: cell-based
- experimental parameters: IRM compound 10 μM, 18 hours, fold increase compared to DMSO negative control, representative experiment
Give the figure by itself; no unit, no explanation.

{"columns": ["smiles code", "target", "measured property", "value"],
 "data": [
  ["CCCCc1nc2c(N)nc3cccnc3c2n1CC(C)C", "human TLR6 (Homo sapiens, UniProt Q9Y2C9)", "Fold Increase in Luciferase Induction", 3.2],
  ["CCCCc1nc2c(N)nc3c(c2n1CC(C)C)NCCC3", "human TLR6 (Homo sapiens, UniProt Q9Y2C9)", "Fold Increase in Luciferase Induction", 2.9],
  ["CCCCc1nc2c(N)nc3ccccc3c2n1CCCCNS(C)(=O)=O", "human TLR6 (Homo sapiens, UniProt Q9Y2C9)", "Fold Increase in Luciferase Induction", 2.6],
  ["CCc1nc2c(N)nc3ccccc3c2n1CCCCCS(C)(=O)=O", "human TLR6 (Homo sapiens, UniProt Q9Y2C9)", "Fold Increase in Luciferase Induction", 2.3],
  ["Nc1nc2ccccc2c2c1ncn2CCOCCCc1cccnc1", "human TLR6 (Homo sapiens, UniProt Q9Y2C9)", "Fold Increase in Luciferase Induction", 4.0]
]}

What does the data say about its Fold Increase in Luciferase Induction? Entry: CCOCc1nc2c(N)nc3c(c2n1CC(C)(C)O)CCCC3
3.6

Ok, now COCCc1nc2c(N)nc3ccccc3c2n1CCCCNC(=O)c1ccc(-n2cccc2)nc1
3.2

Ok, now Cc1nc2c(N)nc3ccccc3c2n1CC(C)(C)O
2.7
